Data provenance is ChEMBL document CHEMBL1961873.

Test System: Serine/threonine-protein kinase MRCK alpha (Homo sapiens) (UniProt Q5VT25)
Sequence (Q5VT25 whole entry): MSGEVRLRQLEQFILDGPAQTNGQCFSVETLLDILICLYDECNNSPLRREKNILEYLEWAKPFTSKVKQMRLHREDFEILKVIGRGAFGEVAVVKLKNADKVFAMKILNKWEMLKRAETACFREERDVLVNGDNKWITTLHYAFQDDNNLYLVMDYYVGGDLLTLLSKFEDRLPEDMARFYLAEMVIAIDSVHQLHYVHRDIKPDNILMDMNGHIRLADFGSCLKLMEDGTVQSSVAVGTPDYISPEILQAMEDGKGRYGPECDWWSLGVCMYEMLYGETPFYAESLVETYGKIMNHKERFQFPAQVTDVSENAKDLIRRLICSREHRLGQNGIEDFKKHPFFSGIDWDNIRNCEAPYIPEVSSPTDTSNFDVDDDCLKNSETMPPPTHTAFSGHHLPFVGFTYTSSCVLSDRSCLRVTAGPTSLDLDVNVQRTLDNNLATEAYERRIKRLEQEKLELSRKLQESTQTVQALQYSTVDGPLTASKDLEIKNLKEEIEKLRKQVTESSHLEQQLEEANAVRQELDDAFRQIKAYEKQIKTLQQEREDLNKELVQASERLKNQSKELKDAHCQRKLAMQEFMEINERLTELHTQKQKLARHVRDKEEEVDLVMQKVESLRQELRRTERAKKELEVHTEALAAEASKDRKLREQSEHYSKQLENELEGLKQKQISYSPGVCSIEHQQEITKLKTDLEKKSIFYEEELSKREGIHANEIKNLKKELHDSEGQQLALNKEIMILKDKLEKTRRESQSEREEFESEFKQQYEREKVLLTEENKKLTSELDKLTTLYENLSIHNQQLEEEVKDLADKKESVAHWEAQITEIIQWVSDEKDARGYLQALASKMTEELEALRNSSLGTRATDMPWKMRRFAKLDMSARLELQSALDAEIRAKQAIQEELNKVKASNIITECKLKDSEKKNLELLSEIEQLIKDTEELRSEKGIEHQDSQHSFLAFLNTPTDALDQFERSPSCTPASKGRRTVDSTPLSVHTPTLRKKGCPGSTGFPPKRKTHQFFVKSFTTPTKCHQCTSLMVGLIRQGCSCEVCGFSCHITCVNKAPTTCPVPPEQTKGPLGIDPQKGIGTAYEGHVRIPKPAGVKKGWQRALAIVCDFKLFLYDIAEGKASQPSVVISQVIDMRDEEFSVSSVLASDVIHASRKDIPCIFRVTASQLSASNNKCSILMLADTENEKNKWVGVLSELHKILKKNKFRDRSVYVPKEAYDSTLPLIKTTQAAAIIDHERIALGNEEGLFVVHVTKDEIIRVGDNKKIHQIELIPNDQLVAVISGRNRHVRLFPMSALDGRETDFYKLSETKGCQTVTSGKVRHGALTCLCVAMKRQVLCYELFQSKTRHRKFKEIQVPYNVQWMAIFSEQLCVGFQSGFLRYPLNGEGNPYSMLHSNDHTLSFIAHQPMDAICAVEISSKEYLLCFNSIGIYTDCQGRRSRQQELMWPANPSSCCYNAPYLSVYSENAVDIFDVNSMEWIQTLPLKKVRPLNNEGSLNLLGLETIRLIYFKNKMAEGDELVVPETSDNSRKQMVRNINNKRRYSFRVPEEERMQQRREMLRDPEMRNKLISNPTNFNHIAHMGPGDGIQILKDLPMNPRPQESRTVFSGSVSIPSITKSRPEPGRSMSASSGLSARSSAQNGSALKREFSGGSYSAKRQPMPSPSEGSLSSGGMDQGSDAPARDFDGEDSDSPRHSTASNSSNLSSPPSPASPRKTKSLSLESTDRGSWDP
Assay Conditions: at 1 µM

Molecule: Clc1ccc(CNc2nccc(-c3cnn4ncccc34)n2)cc1
Test System: Serine/threonine-protein kinase MRCK alpha (Homo sapiens) (UniProt Q5VT25)
inhibition / %: 2.46

Molecule: Cc1ccc(C(=O)NC(C)C)cc1-c1ccc(C(=O)NCC2CC2)cc1
Test System: Serine/threonine-protein kinase MRCK alpha (Homo sapiens) (UniProt Q5VT25)
inhibition / %: -2.08

Molecule: CCc1cccc(CC)c1/C=C/c1cncc(C(=O)NC)c1
Test System: Serine/threonine-protein kinase MRCK alpha (Homo sapiens) (UniProt Q5VT25)
inhibition / %: 0.07

Molecule: FC(F)(F)c1cccc(Nc2nccc(-c3cnn4nc(-c5ccccc5)ccc34)n2)c1
Test System: Serine/threonine-protein kinase MRCK alpha (Homo sapiens) (UniProt Q5VT25)
inhibition / %: -0.12

Molecule: N#Cc1ccc(Oc2nccc(-c3c(-c4ccc(F)cc4)ncn3C3CCNCC3)n2)cc1
Test System: Serine/threonine-protein kinase MRCK alpha (Homo sapiens) (UniProt Q5VT25)
inhibition / %: -3.04

Molecule: O=C1Nc2ccc(I)cc2C1=Cc1cc(Br)c(O)c(Br)c1
Test System: Serine/threonine-protein kinase MRCK alpha (Homo sapiens) (UniProt Q5VT25)
inhibition / %: 3.97

Molecule: Fc1ccc(-c2nc3n(c2-c2ccncc2)CCS3)cc1
Test System: Serine/threonine-protein kinase MRCK alpha (Homo sapiens) (UniProt Q5VT25)
inhibition / %: 2.85

Molecule: Fc1ccc(-c2ncn(C3CCNCC3)c2-c2ccnc(Oc3ccc(F)c(F)c3)n2)cc1
Test System: Serine/threonine-protein kinase MRCK alpha (Homo sapiens) (UniProt Q5VT25)
inhibition / %: -2.58

Molecule: CN(C)CCCNc1nccc(-c2c(-c3ccc(F)cc3)nn3cc(C(F)(F)F)ccc23)n1
Test System: Serine/threonine-protein kinase MRCK alpha (Homo sapiens) (UniProt Q5VT25)
inhibition / %: 1.03

Molecule: NCc1ccc(-n2c(-c3nonc3N)nc3cnccc32)cc1
Test System: Serine/threonine-protein kinase MRCK alpha (Homo sapiens) (UniProt Q5VT25)
inhibition / %: 90.6

Molecule: O=C(Nc1n[nH]c2cc(-c3cc(F)ccc3F)ccc12)C1CC1
Test System: Serine/threonine-protein kinase MRCK alpha (Homo sapiens) (UniProt Q5VT25)
inhibition / %: -3.13

Molecule: O=C(NCC1CC1)c1ccc(-c2cccc(C(=O)NC3CC3)c2)cc1
Test System: Serine/threonine-protein kinase MRCK alpha (Homo sapiens) (UniProt Q5VT25)
inhibition / %: -1.55

Molecule: CN1CCN(CCCNc2nc3ccc(Oc4ccc(NC(=O)Nc5cc(C(F)(F)F)ccc5F)cc4)cc3[nH]2)CC1
Test System: Serine/threonine-protein kinase MRCK alpha (Homo sapiens) (UniProt Q5VT25)
inhibition / %: -0.74

Molecule: CS(=O)(=O)CCNCc1ccc(-c2ccc3ncnc(Nc4ccc(OCc5ccccc5)c(Br)c4)c3c2)o1
Test System: Serine/threonine-protein kinase MRCK alpha (Homo sapiens) (UniProt Q5VT25)
inhibition / %: -3.23

Molecule: Fc1ccc(-c2ncn(C3CCNCC3)c2-c2ccnc(Oc3ccc(Oc4ccccc4)cc3)n2)cc1
Test System: Serine/threonine-protein kinase MRCK alpha (Homo sapiens) (UniProt Q5VT25)
inhibition / %: 7.37

Molecule: O=C1NC(=O)C(c2cccc(Cl)c2)=C1Nc1ccc(Cl)c(C(=O)O)c1
Test System: Serine/threonine-protein kinase MRCK alpha (Homo sapiens) (UniProt Q5VT25)
inhibition / %: 4.38

Molecule: c1ccc(Oc2ccc(Nc3ncc(-c4ccccc4)o3)cc2)cc1
Test System: Serine/threonine-protein kinase MRCK alpha (Homo sapiens) (UniProt Q5VT25)
inhibition / %: 1.06

Molecule: O=C(Nc1n[nH]c2nc(-c3ccc(O)cc3)c(Br)cc12)C1CC1
Test System: Serine/threonine-protein kinase MRCK alpha (Homo sapiens) (UniProt Q5VT25)
inhibition / %: 13.5

Molecule: C[C@@H](Oc1cc(-n2cnc3ccc(OCC4CCN(C)CC4)cc32)sc1C(N)=O)c1ccccc1Cl
Test System: Serine/threonine-protein kinase MRCK alpha (Homo sapiens) (UniProt Q5VT25)
inhibition / %: 9.1

Molecule: CN(C)CCOc1ccc(-c2cc(-c3ccc4c(c3)CCC4=NO)c(-c3ccncc3)o2)cc1
Test System: Serine/threonine-protein kinase MRCK alpha (Homo sapiens) (UniProt Q5VT25)
inhibition / %: -0.33

Molecule: CCS(=O)(=O)c1ccc(OC)c(Nc2ncc(-c3cccc(-c4ccccc4F)c3)o2)c1
Test System: Serine/threonine-protein kinase MRCK alpha (Homo sapiens) (UniProt Q5VT25);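 note: each value is an averaged percent inhibition of MRCK alpha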
inhibition / %: -0.52
